Ki reference
# study-target: hTNALP N168 (Homo sapiens, UniProt P05186, D185N)
# Sequence (P05186 18-501 D185N): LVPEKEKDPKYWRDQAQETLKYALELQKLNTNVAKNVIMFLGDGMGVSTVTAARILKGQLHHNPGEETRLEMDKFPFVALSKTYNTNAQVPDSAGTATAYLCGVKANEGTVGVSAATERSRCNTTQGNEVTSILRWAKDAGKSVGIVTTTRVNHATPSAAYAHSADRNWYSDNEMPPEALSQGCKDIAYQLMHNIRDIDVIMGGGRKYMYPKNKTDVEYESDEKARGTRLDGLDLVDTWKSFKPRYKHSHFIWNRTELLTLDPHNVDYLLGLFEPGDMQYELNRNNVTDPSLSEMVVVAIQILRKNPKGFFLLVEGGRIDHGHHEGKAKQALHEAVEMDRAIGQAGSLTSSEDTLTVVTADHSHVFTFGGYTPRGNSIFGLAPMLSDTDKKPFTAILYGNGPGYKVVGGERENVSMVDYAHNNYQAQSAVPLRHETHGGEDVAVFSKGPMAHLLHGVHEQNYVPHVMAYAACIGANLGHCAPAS
# test-protocol: biochemical
measurement-type: Ki (mM)

[
  {
    "molecule": "N[C@@H](Cc1ccccc1)C(=O)O [L-Phe, L-phenylalanine]",
    "numeric-value": 42
  },
  {
    "molecule": "N=C(N)NCCCC[C@H](N)C(=O)O [L-hArg, L-homoarginine]",
    "numeric-value": 1.8
  }
]

Value source: patent US20090142347A1
